Assignment: determine reported IC50 for the given compounds.
Where a name gives a salt, the structure may show the parent alone.

// IC50 (TNAP (Homo sapiens)) for O=C1NCCc2ncc(NS(=O)(=O)c3cc(F)cc4c3OCC4)cc21 [Example 23] = ≥ 1000 nM

// IC50 (TNAP (Homo sapiens)) for COc1ccc(Br)cc1S(=O)(=O)Nc1cnc2c(c1)C(=O)NCC2 [Example 9] = ≤ 10 nM

// IC50 (TNAP (Homo sapiens)) for COc1ccc(F)cc1S(=O)(=O)Nc1cnc2c(c1)CNCC2 [Example 90, hydrochloride] = 100 to 1000 nM

// IC50 (TNAP (Homo sapiens)) for COc1ccc(-c2cnn(C(C)c3nc(C)no3)c2)cc1S(=O)(=O)Nc1cnc2c(c1)C(=O)NCC2 (centres unmarked) [Example 70] = 100 to 1000 nM

// IC50 (TNAP (Homo sapiens)) for COc1ccc(-c2cnn(C(C)c3nc(C(C)C)no3)c2)cc1S(=O)(=O)Nc1cnc2c(c1)C(=O)NCC2 (centres unmarked) [Example 69] = 100 to 1000 nM

// IC50 (TNAP (Homo sapiens)) for O=C1NCCc2ncc(NS(=O)(=O)c3cccc4c3OCC4)cc21 [Example 19] = ≥ 1000 nM

// IC50 (TNAP (Homo sapiens)) for CCOC(=O)N1CCc2ncc(NS(=O)(=O)c3cc(Br)ccc3OC)cc2C1 [Example 97] = 100 to 1000 nM

// IC50 (TNAP (Homo sapiens)) for O=C1NCCCc2ncc(NS(=O)(=O)c3cc(Br)cc4c3OCC4)cc21 [Example 17] = ≥ 1000 nM

// IC50 (TNAP (Homo sapiens)) for COc1ccc(OC)c(S(=O)(=O)Nc2cnc3c(c2)CN(C(=O)OCCF)CC3)c1 [Example 103] = 10 to 100 nM

// IC50 (TNAP (Homo sapiens)) for COc1ccc(Cl)cc1S(=O)(=O)Nc1cncc(C(N)=O)c1 [SBD-425, reference compound] = 100 to 1000 nM

// IC50 (TNAP (Homo sapiens)) for COc1ccc(Br)cc1S(=O)(=O)Nc1cnc2c(c1)CN(C(=O)N1CCOCC1)CC2 [Example 110] = 10 to 100 nM

// IC50 (TNAP (Homo sapiens)) for COc1ccc(Br)cc1S(=O)(=O)Nc1cnc2c(c1)CN(C(=O)OC(C)(C)C)CC2 [Example 88] = 100 to 1000 nM

// IC50 (TNAP (Homo sapiens)) for COc1ccc(Cl)cc1S(=O)(=O)Nc1cnc2c(c1)CN(C(=O)OCC(C)(C)C)CC2 [Example 98] = 100 to 1000 nM

// IC50 (TNAP (Homo sapiens)) for COc1ccc(-c2cnn(C3CCOCC3)c2)cc1S(=O)(=O)Nc1cnc2c(c1)C(=O)NCC2 [Example 76] = 100 to 1000 nM

// IC50 (TNAP (Homo sapiens)) for COc1ccc(Cl)cc1S(=O)(=O)Nc1cnc2c(c1)CNCC2 [Example 92, hydrochloride] = 10 to 100 nM

// IC50 (TNAP (Homo sapiens)) for O=C1NCCc2ncc(NS(=O)(=O)c3c(F)cc(F)cc3-c3ccc(C4(C(=O)O)CC4)cc3)cc21 [Example 37] = ≥ 1000 nM

// IC50 (TNAP (Homo sapiens)) for NCc1ccc(-c2cc3c(c(S(=O)(=O)Nc4cnc5c(c4)C(=O)NCC5)c2)OCC3)cc1 [Example 41] = ≥ 1000 nM
